Molecular target: IL16_1, Q14005
Sequence (Q14005 210-306): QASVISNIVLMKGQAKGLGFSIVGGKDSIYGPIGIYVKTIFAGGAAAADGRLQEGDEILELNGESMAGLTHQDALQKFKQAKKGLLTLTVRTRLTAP
Assay: holdup assay
Design: key: below the threshold = too weak to quantify, mostly under pKd 3.1 to 4
Conditions: plain residues with an end cap or a label only (N-terminal biotin on a linker: ado-ado)
Property Label: pKd

Use these answered entries as a reference point.
[
  {
    "Binder": "KKTPVSRSHL [SLC22A3, O75751]",
    "Property Label": "pKd",
    "Result": "below the threshold"
  },
  {
    "Binder": "DFKHTKSFII [JAM2, P57087]",
    "Property Label": "pKd",
    "Result": "below the threshold"
  },
  {
    "Binder": "QLGSPTADLA [SIPA1, Q96FS4]",
    "Property Label": "pKd",
    "Result": "below the threshold"
  },
  {
    "Binder": "PEKVSNTTVV [IGSF5, Q9NSI5]",
    "Property Label": "pKd",
    "Result": "below the threshold"
  },
  {
    "Binder": "PGKKPEDSRV [SLCO2B1, O94956]",
    "Property Label": "pKd",
    "Result": 3.84
  },
  {
    "Binder": "PSVYSRSQYV [CLDN8, P56748]",
    "Property Label": "pKd",
    "Result": "below the threshold"
  },
  {
    "Binder": "LPPPESESKV [KCNJ9, Q92806]",
    "Property Label": "pKd",
    "Result": 4.11
  },
  {
    "Binder": "FHSIKQSTAV [CRHR1, P34998]",
    "Property Label": "pKd",
    "Result": "below the threshold"
  },
  {
    "Binder": "PLPPEEESWV [GAS2L2, Q8NHY3]",
    "Property Label": "pKd",
    "Result": 5.24
  },
  {
    "Binder": "EKPIDSETKM [SLC1A3, P43003]",
    "Property Label": "pKd",
    "Result": "below the threshold"
  }
]

# return pKd for each item in the list
1. WAKEKQHTRL [SLC17A1, Q14916]
2. PALKNGQYWV [CSPG4, Q6UVK1]
3. LLQEEWETVM [PTH1R, Q03431]
4. QKNKDREYYV [NRXN3, Q9HDB5]
5. NTALVESEDL [PALLS, Q8WX93;Q8WX93-1]

1: below the threshold; 2: 3.79; 3: below the threshold; 4: 3.72; 5: below the threshold

Which pKd reading was recorded for the binder SRPHTNETSL [MCC, P23508] ?
below the threshold
